tested on: 171881-019-R-J1-PDC tumor spheroid viability; experiment: Anticancer human tumor 171881-019-R-J1-PDC patient-derived invasive breast carcinoma cell line growth inhibition [PI3K]; details: second compound 10 µM; first compound 10 µM; hits give low values; spheroids with HUVEC and MSC
Measured Endpoint: viability, T/C (%)
Express your answer in %, writing the number without its unit.

Look at this molecule and give its reported viability, T/C. CC1(C)CCC(CN2CCN(c3ccc(C(=O)NS(=O)(=O)c4ccc(NCC5CCOCC5)c([N+](=O)[O-])c4)c(Oc4cnc5[nH]ccc5c4)c3)CC2)=C(c2ccc(Cl)cc2)C1 + CC(Nc1ncnc2nc[nH]c12)c1cc2cccc(Cl)c2c(=O)n1-c1ccccc1
9.06

Look at this molecule and give its reported viability, T/C. CC(Cn1ccc(-c2ccc(C#N)c(Cl)c2)n1)NC(=O)c1cc(C(C)O)[nH]n1 (stereo not drawn) + Cc1nc(NC(=O)N2CCCC2C(N)=O)sc1-c1ccnc(C(C)(C)C(F)(F)F)c1
3.87

Look at this molecule and give its reported viability, T/C. CCCS(=O)(=O)Nc1ccc(F)c(C(=O)c2c[nH]c3ncc(-c4ccc(Cl)cc4)cc23)c1F + CC(Nc1ncnc2nc[nH]c12)c1cc2cccc(Cl)c2c(=O)n1-c1ccccc1
6.77

###

System: 171881-019-R-J1-PDC tumor spheroid viability
Assay: Anticancer human tumor 171881-019-R-J1-PDC cell line growth inhibition [PI3K]; active = viability on the fitted dose curve at most 10% of control; inactive = the rest;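 note: spheroids exposed to compound for 7 days before viability read; 100% = DMSO vehicle-treated spheroids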
Conditions: second compound 1 µM; first compound 3.16 µM; spheroids with HUVEC and MSC
Source text: Combinatorial screen of targeted agents with the PI3K inhibitors inavolisib, alpelisib, duvelisib, and copanlisib in multi-cell type tumor spheroids A high-throughput screen of multi-cell type tumor spheroids was designed to identify active combinations of targeted small molecules and PI3K pathway inhibitors. […] Compounds. […] If the clinical Cmax for an agent had not been determined, the highest concentration tested was 10 microM. […]
API: response.call in active, inactive

Given CC(Cn1ccc(-c2ccc(C#N)c(Cl)c2)n1)NC(=O)c1cc(C(C)O)[nH]n1 (stereo not given) + CC(Nc1ccc2c(c1)OCCn1cc(N3C(=O)OCC3C(F)F)nc1-2)C(N)=O , state the outcome it received in this test.
inactive

Given CCCS(=O)(=O)Nc1ccc(F)c(C(=O)c2c[nH]c3ncc(-c4ccc(Cl)cc4)cc23)c1F + CC(Nc1ncnc2nc[nH]c12)c1cc2cccc(Cl)c2c(=O)n1-c1ccccc1 , state the outcome it received in this test.
inactive

Given Cn1ncc(Cl)c1-c1cc(C(=O)NC(CN)Cc2cccc(F)c2)sc1Cl (stereo not given) + COc1c(OCCCN2CCOCC2)ccc2c3n(c(=NC(=O)c4cnc(N)nc4)nc12)CCN3 , state the outcome it received in this test.
active

Given C#Cc1c(F)ccc2cc(O)cc(-c3ncc4c(N5CC6CCC(C5)N6)nc(OCC56CCCN5CC(F)C6)nc4c3F)c12 (stereo not given) + COc1c(OCCCN2CCOCC2)ccc2c3n(c(=NC(=O)c4cnc(N)nc4)nc12)CCN3 , state the outcome it received in this test.
active

Given C=CC(=O)N1CCN(c2nc(=O)n(-c3c(C)ccnc3C(C)C)c3nc(-c4c(O)cccc4F)c(F)cc23)C(C)C1 (stereo not given) + CC(Nc1ccc2c(c1)OCCn1cc(N3C(=O)OCC3C(F)F)nc1-2)C(N)=O , state the outcome it received in this test.
inactive

Given CC1(C)CCC(CN2CCN(c3ccc(C(=O)NS(=O)(=O)c4ccc(NCC5CCOCC5)c([N+](=O)[O-])c4)c(Oc4cnc5[nH]ccc5c4)c3)CC2)=C(c2ccc(Cl)cc2)C1 + Cc1nc(NC(=O)N2CCCC2C(N)=O)sc1-c1ccnc(C(C)(C)C(F)(F)F)c1 , state the outcome it received in this test.
inactive

Given C#Cc1c(F)ccc2cc(O)cc(-c3ncc4c(N5CC6CCC(C5)N6)nc(OCC56CCCN5CC(F)C6)nc4c3F)c12 (stereo not given) + CC(Nc1ncnc2nc[nH]c12)c1cc2cccc(Cl)c2c(=O)n1-c1ccccc1 , state the outcome it received in this test.
inactive

Given C[C@@H](NC(=O)c1ncnc(N)c1Cl)c1ncc(C(=O)Nc2cc(C(F)(F)F)c(Cl)cn2)s1 + Cc1nc(NC(=O)N2CCCC2C(N)=O)sc1-c1ccnc(C(C)(C)C(F)(F)F)c1 , state the outcome it received in this test.
inactive

Given Cn1nccc1Nc1nccc(-c2ccn(C(CO)c3ccc(Cl)c(F)c3)c(=O)c2)n1 (stereo not given) + CC(Nc1ccc2c(c1)OCCn1cc(N3C(=O)OCC3C(F)F)nc1-2)C(N)=O , state the outcome it received in this test.
active

Given CNC(=O)c1ccc(N2C(=S)N(c3ccc(C#N)c(C(F)(F)F)c3)C(=O)C2(C)C)cc1F + Cc1nc(NC(=O)N2CCCC2C(N)=O)sc1-c1ccnc(C(C)(C)C(F)(F)F)c1 , state the outcome it received in this test.
inactive

###

test system: 171881-019-R-J1-PDC tumor spheroid viability; assay: Anticancer human tumor 171881-019-R-J1-PDC cell line growth inhibition [PI3K]; settings: second compound 0.316 µM; first compound 0.000316 µM; spheroids with HUVEC and MSC; active means viability on the fitted dose curve at most 10% of control; inactive means the rest;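 note: spheroids exposed to compound for 7 days before viability read; 100% = DMSO vehicle-treated spheroids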
API: response.call in active, inactive

Given CC(=O)c1c(C)c2cnc(Nc3ccc(N4CCNCC4)cn3)nc2n(C2CCCC2)c1=O + CC(Nc1ncnc2nc[nH]c12)c1cc2cccc(Cl)c2c(=O)n1-c1ccccc1 , state the outcome it received in this test.
inactive

Given Cn1ncnc1[C@H]1c2n[nH]c(=O)c3cc(F)cc(c23)N[C@@H]1c1ccc(F)cc1 + CC(Nc1ncnc2nc[nH]c12)c1cc2cccc(Cl)c2c(=O)n1-c1ccccc1 , state the outcome it received in this test.
inactive

Given Cn1ncnc1[C@H]1c2n[nH]c(=O)c3cc(F)cc(c23)N[C@@H]1c1ccc(F)cc1 + COc1c(OCCCN2CCOCC2)ccc2c3n(c(=NC(=O)c4cnc(N)nc4)nc12)CCN3 , state the outcome it received in this test.
active

###

Task for the reader: assign each of the following compounds its reported viability, T/C.
tested on: 171881-019-R-J1-PDC tumor spheroid viability; assay: Anticancer human tumor 171881-019-R-J1-PDC cell line growth inhibition [PI3K]; settings: second compound 0.0316 µM; first compound 0.316 µM; hits give low values; spheroids with HUVEC and MSC;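 note: spheroids exposed to compound for 7 days before viability read; 100% = DMSO vehicle-treated spheroids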
Express your answer in %, writing the number without its unit.

Look at this compound and give its reported viability, T/C. Cn1nccc1Nc1nccc(-c2ccn(C(CO)c3ccc(Cl)c(F)c3)c(=O)c2)n1 (stereo not drawn) + Cc1nc(NC(=O)N2CCCC2C(N)=O)sc1-c1ccnc(C(C)(C)C(F)(F)F)c1
47.2

Look at this compound and give its reported viability, T/C. C=CC(=O)N1CCN(c2nc(=O)n(-c3c(C)ccnc3C(C)C)c3nc(-c4c(O)cccc4F)c(F)cc23)C(C)C1 (stereo not drawn) + COc1c(OCCCN2CCOCC2)ccc2c3n(c(=NC(=O)c4cnc(N)nc4)nc12)CCN3
24.3

Look at this compound and give its reported viability, T/C. Cn1nccc1Nc1nccc(-c2ccn(C(CO)c3ccc(Cl)c(F)c3)c(=O)c2)n1 (stereo not drawn) + COc1c(OCCCN2CCOCC2)ccc2c3n(c(=NC(=O)c4cnc(N)nc4)nc12)CCN3
8.54

###

test system: 171881-019-R-J1-PDC tumor spheroid viability; experiment: Anticancer human tumor 171881-019-R-J1-PDC cell line growth inhibition [PI3K]; conditions: second compound 1 µM; first compound 0.1 µM; hits give low values; spheroids with HUVEC and MSC;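 note: spheroids exposed to compound for 7 days before viability read; 100% = DMSO vehicle-treated spheroids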
Mark criterion met only for viability, T/C values smaller than 30%; exact matches and larger values are criterion not met.

viability, T/C strictly < 30% for this compound? C=CC(=O)N1CCN(c2nc(=O)n(-c3c(C)ccnc3C(C)C)c3nc(-c4c(O)cccc4F)c(F)cc23)C(C)C1 (configuration not stated) + CC(Nc1ncnc2nc[nH]c12)c1cc2cccc(Cl)c2c(=O)n1-c1ccccc1
criterion not met

viability, T/C strictly < 30% for this compound? C=CC(=O)N1CCN(c2nc(=O)n(-c3c(C)ccnc3C(C)C)c3nc(-c4c(O)cccc4F)c(F)cc23)C(C)C1 (configuration not stated) + CC(Nc1ccc2c(c1)OCCn1cc(N3C(=O)OCC3C(F)F)nc1-2)C(N)=O
criterion met

viability, T/C strictly < 30% for this compound? C[C@@H](NC(=O)c1ncnc(N)c1Cl)c1ncc(C(=O)Nc2cc(C(F)(F)F)c(Cl)cn2)s1 + COc1c(OCCCN2CCOCC2)ccc2c3n(c(=NC(=O)c4cnc(N)nc4)nc12)CCN3
criterion met

viability, T/C strictly < 30% for this compound? CC(Cn1ccc(-c2ccc(C#N)c(Cl)c2)n1)NC(=O)c1cc(C(C)O)[nH]n1 (configuration not stated) + CC(Nc1ccc2c(c1)OCCn1cc(N3C(=O)OCC3C(F)F)nc1-2)C(N)=O
criterion met

viability, T/C strictly < 30% for this compound? CC1(C)CCC(Nc2ncc(C(F)(F)F)c(-c3c[nH]c4c(P(C)(C)=O)c(C#N)ccc34)n2)CN1 (configuration not stated) + CC(Nc1ncnc2nc[nH]c12)c1cc2cccc(Cl)c2c(=O)n1-c1ccccc1
criterion not met

viability, T/C strictly < 30% for this compound? Cn1ncnc1[C@H]1c2n[nH]c(=O)c3cc(F)cc(c23)N[C@@H]1c1ccc(F)cc1 + Cc1nc(NC(=O)N2CCCC2C(N)=O)sc1-c1ccnc(C(C)(C)C(F)(F)F)c1
criterion met

viability, T/C strictly < 30% for this compound? CCN1CCN(Cc2ccc(Nc3ncc(F)c(-c4cc(F)c5nc(C)n(C(C)C)c5c4)n3)nc2)CC1 + CC(Nc1ccc2c(c1)OCCn1cc(N3C(=O)OCC3C(F)F)nc1-2)C(N)=O
criterion met
